Experiment: growth inhibition of S. aureus RN4220, primary screen, OD600 (AID 1259311);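 note: plate controls were untreated cells for no effect and reference antibiotic for full effect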
Conditions: OD600, 16 h, active compounds read high
The campaign covered roughly 330,000 compounds. About 1,100 (0.33%) were called active. The list comes from a sample in which actives are over-represented; it also holds close analogues and randomly drawn compounds.

{"columns": ["Compound", "inhibition (%)"],
 "data": [
  ["CC(C)c1ccc2c(c1)c(SC(C)(C)C)c(CC(C)(C)C(=O)O)n2Cc1ccc(Cl)cc1", 100],
  ["COc1ccccc1NC(=O)c1ccc2nc(N3C(=O)CCC3=O)sc2c1", 2.05],
  ["CCCCN1C(=S)NCC1Cc1ccc(O)cc1 (stereo unspecified)", 4.99],
  ["S=c1[nH]nc(-c2cccc(Cl)c2)n1N=Cc1ccc(-c2ccccc2Br)o1", 10.7],
  ["Cc1nc2c(-c3ccccc3)c(C)[nH]n2c(=O)c1Cl", 5.58],
  ["COc1ccc(/C=C/C(=O)c2cc(Br)ccc(=O)c2O)cc1", 94.3],
  ["COc1ccc(C(=O)Nc2cccc(/C=C(/CCC(=O)O)c3nc4ccccc4s3)c2)cc1", 19.7],
  ["C#CCOCCOCCOCCNc1nc(N2CCN(C(=O)C(Cc3cc4ccccc4[nH]3)n3cc(C(N)CC(C)C)nn3)CC2)nc(N2CCN(C(=O)C(Cc3ccc(O)cc3)n3cc(C(N)C(C)CC)nn3)CC2)n1 (stereo unspecified)", -1.75],
  ["N#CC(=C(O)c1ccco1)c1ccccn1", 2.69],
  ["Cc1ccc(C=NNC(=O)Cc2cccn2C)cc1", 1.44],
  ["CC1CN(C(C)CO)C(=O)c2cccc(NC(=O)c3ccc(-c4nccs4)cc3)c2OC1CN(C)C(=O)NC1CCCCC1 (stereo unspecified)", 4.31],
  ["Cc1c(O)ccc(C(Cc2ccc3ccccc3n2)=NN)c1O", 4.37],
  ["Cc1cccc(NC(=NS(=O)(=O)c2ccccc2)c2ccccc2)n1", -0.262],
  ["COc1ccc(C(CCN(Cc2ccc(OC)c(OC)c2)C(=O)CCl)c2ccccc2)cc1 (stereo unspecified)", 85.5],
  ["COc1ccc(C2=NN(c3nc4ccccc4s3)C(=O)C2)cc1", 97.7],
  ["COc1ccc(C=NNc2ccc([N+](=O)[O-])cc2S(=O)(=O)N2CCN(C)CC2)cc1", -2.66],
  ["COc1cccc(C=NNC(=O)CNC(=O)C2COc3ccccc3O2)c1O (stereo unspecified)", 2.29],
  ["COc1ccc(CCNC(=O)C(Sc2ccccn2)c2ccccc2)cc1OC (stereo unspecified)", 4.13],
  ["CC1=NOC(=O)C1=Cc1ccc(-c2ccc(Cl)c(C(=O)O)c2)o1", 3.22],
  ["Cc1[nH]n(-c2cccc(Cl)c2)c(=O)c1-c1ccc(Cl)cc1", 106],
  ["Cc1cc(=O)n2[nH]c(-c3cccc(Cl)c3)cc2n1", 0.714]
]}
